Assay: recombinant UMI read abundance after kanamycin selection (control-corrected) (log10(CPM+1)); higher = more efficient recombination; extreme values may be limits of the assay; sequences stand for … in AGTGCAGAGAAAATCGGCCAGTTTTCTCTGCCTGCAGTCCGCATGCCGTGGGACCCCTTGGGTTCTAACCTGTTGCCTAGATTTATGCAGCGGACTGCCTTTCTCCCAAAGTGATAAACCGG…AGGTTGGTTTCACT; site = the 11-nt donor;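 further: IS621 bridge recombinase in Escherichia coli cells against a fixed T5 target plasmid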
Output label 1 for recombinant UMI read abundance (log10) not less than 0.03; output label 0 otherwise.

record sequence	class label
TCGCAGACATGGACCGGTTTTCCCGGTAATCCGTATTTGCG (site TCGCAGACTCG)	label 0

Test whether the sequence AACCACGCATGGACCGGTTTTCCCGGTAATCCGTATTTGGG (site AAACACGCTCC) records recombinant UMI read abundance (log10) of 0.03 or higher.
label 0

Same for ATTGAGGCATGGACCGGTTTTCCCGGTAATCCGTATTTGGT (site ATTGAGACTAC)
label 1

Same for AGACTTTCATGGACCGGTTTTCCCGGTAATCCGTATTTGAC (site AGGCTTTCTGT)
label 1

Same for GCGAAGACATGGACCGGTTTTCCCGGTAATCCGTATTTGGG (site GCGAAGGCTCC)
label 1

Same for CTTCTCTCATGGACCGGTTTTCCCGGTAATCCGTATTTGTA (site CTTCTGTCTTA)
label 0

Same for ACTAGTGCATGGACCGGTTTTCCCGGTAATCCGTATTTGTT (site ACTAGTGCTAC)
label 0

Same for GAGATCACATGGACCGGTTTTCCCGGTAATCCGTATTTGAT (site GAGATCACTAT)
label 1

Same for GCACGAACATGGACCGGTTTTCCCGGTAATCCGTATTTGTC (site CCACGAACTGA)
label 1
